What hSCTR pEC50 (purified peptide) was measured for each of the following?
- ASSAYED_SYSTEM: human secretin receptor (hSCTR) (human, UniProt P47872 23-440)
- Sequence (P47872 23-440): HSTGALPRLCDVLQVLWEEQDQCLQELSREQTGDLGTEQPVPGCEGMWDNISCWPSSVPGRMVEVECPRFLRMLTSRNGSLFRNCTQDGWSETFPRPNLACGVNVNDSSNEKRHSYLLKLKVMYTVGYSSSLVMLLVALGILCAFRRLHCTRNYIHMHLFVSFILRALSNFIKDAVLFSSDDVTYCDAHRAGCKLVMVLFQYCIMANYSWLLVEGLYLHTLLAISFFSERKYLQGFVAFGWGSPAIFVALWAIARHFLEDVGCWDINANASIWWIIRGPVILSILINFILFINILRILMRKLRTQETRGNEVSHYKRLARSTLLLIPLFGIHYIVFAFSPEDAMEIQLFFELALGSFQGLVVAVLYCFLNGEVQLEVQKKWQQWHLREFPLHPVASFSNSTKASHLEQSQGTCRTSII
- ASSAY: cell-based or functional assay
Numbered stars: 1 amine (or outer) side, 2 acyl side, 3 side chain; on linkers, the order of the positions; unused ones are H or OH. Square brackets hold non-standard residues; d marks the D form. Side chains are listed from the residue outwards. Ends that are not written are not given here. * marks the point of attachment. C20 diacid = O=C(O)CCCCCCCCCCCCCCCCCCC(=O)*; γGlu = O=C(O)[C@H](CCC(=O)[*:2])N[*:1]; AEEA = NCCOCCOCC(=O)O; Aib = CC(C)(N)C(=O)O

Sample answers from the record:
INSERT INTO assay_data (binder, endpoint_result) VALUES
  ('H[Aib]EGTFTSDVSRLLEEA[Aib]LQRFLEK([AEEA-AEEA-γGlu-C20 diacid])LVEAA-NH2 [SEQ ID NO: 212]', '7.2 -log M'),
  ('H[Aib]EGTFTSDVSELK([AEEA-AEEA-γGlu-C20 diacid])EEA[Aib]LQRFLEHLV-NH2 [SEQ ID NO: 168]', '7 -log M'),
  ('H[Aib]EGTFTSDVSRLK([AEEA-AEEA-γGlu-C20 diacid])EEA[Aib]LQRFLEHLVEAA-NH2 [SEQ ID NO: 208]', '7.6 -log M');

Let us move to another entry and its hSCTR pEC50 (purified peptide).
What does the record list as hSCTR pEC50 (purified peptide) for H[Aib]EGTFTSDVSELK([AEEA-AEEA-γGlu-C20 diacid])EEA[Aib]LQRFLEHLVEAA-NH2 [SEQ ID NO: 210] ? 6.7 -log M
